B1: Far upstream element-binding protein 2, residues 142 to 214; numbered along this chain, Q92945 (parent)
chain: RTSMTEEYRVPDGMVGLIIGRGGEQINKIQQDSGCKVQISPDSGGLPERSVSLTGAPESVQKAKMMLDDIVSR

Variants of: B1
Assay: abundance fitness (aPCA) (normalised: wild type 0, dead -1); higher = more abundant; growth selection in yeast, the domain comes from the species named
Details: Homo sapiens
This section presents variants with their documented abundance fitness values.
Please respond with just the number, no unit label.

// solved cases for abundance fitness follow
mutation name | abundance fitness
L46C | 0.031
K36N | 0.073
V51C | -0.189
G45W | -0.351
I39E | -0.728
R21D | 0.133
K28C | -0.597
D68Q | -0.116

Name the recorded abundance fitness for P41G . -0.055

Name the recorded abundance fitness for V51F . -0.089

Name the recorded abundance fitness for V71T . -0.032
